# credit: patent US20180185504A1

- experimental-target: T1, hPRLR.mFc (soluble dimeric human PRLR) (human)
- T1 construct: dimeric PRLR construct
- T1 chain: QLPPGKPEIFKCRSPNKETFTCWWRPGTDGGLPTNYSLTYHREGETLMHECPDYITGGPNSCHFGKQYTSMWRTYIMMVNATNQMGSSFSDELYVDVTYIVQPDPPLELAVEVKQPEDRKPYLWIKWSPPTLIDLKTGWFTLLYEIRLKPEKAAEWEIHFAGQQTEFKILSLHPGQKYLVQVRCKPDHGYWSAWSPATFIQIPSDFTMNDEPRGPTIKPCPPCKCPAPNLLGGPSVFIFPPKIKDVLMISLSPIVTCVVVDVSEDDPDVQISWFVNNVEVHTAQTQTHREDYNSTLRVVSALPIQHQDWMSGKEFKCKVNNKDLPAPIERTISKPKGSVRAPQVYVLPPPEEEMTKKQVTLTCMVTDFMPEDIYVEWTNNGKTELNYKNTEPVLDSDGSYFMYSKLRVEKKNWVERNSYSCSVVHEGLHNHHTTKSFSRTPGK
- test-summary: SPR (Biacore), antibody capture, 37 C
Kd listing for selected binders.
Field: numeric (pM). Do not append units.

These recorded examples may help you get a feel for the data.
• H1H6966N (antibody, human IgG1, V domains shown, also called H2M6966N) VH: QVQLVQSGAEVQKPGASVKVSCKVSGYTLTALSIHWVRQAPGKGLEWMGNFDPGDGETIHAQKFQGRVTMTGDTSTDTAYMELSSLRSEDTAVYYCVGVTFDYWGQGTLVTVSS VL: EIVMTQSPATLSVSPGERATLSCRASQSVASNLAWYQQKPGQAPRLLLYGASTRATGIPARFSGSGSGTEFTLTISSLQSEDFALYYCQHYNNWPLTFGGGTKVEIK = 67.2
• H1H6976N (antibody, human IgG1, V domains shown, also called H2M6976N) VH: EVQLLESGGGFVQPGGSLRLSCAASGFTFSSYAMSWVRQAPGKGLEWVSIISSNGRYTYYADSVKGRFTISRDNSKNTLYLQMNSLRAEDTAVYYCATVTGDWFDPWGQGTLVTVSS VL: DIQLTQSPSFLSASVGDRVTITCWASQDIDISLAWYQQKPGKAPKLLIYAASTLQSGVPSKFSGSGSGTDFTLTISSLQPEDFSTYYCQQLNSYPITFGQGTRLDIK = 102

Kindly review the next binder as well.
Could you share which Kd value was measured for H1H6801P (antibody, human IgG1, V domains shown, human IgG1 Fc (H1H)) VH: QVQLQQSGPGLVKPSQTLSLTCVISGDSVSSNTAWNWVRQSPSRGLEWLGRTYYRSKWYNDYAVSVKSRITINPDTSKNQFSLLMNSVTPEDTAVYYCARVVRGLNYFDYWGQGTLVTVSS VL: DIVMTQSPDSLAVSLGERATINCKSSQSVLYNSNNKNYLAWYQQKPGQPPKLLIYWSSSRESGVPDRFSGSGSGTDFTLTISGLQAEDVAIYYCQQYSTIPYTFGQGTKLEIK ?
279
